# system tested: Thioredoxin reductase 1, cytoplasmic (Rattus norvegicus) (UniProt O89049)
# Sequence (O89049 whole entry, looked up): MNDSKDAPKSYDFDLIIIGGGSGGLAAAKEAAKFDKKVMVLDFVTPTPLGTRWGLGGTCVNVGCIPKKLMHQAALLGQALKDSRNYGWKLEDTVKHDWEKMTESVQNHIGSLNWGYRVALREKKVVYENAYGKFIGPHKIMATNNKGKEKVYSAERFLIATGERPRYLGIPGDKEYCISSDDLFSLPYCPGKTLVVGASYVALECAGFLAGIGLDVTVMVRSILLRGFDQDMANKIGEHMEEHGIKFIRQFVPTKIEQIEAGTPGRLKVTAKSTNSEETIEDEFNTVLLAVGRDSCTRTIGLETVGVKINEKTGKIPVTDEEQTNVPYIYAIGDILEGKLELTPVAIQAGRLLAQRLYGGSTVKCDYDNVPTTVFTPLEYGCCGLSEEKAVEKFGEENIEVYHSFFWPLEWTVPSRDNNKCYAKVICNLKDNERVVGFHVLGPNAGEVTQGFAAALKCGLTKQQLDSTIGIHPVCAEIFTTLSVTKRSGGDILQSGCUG
# protocol: qHTS Assay for Inhibitors of Mammalian Selenoprotein Thioredoxin Reductase 1 (TrxR1): qHTS; note: nearly all actives have a fitted effect of over 65% in size; note: potency is the fitted concentration of half-maximal effect
# test parameters: recombinant rTrxR1, NADPH fluorescence consumption, selenite substrate; series mostly up to 114 µM
About 4,000 (1%) of roughly 390,000 compounds were called active. Roughly 4% stayed inconclusive and do not appear here. This is one part of a sample in which actives are shown more often than they occur.
readout name: Potency

{"compound": "C(=Nc1ccc(/C=C/c2ccnc3ccccc23)cc1)c1cc2c3c(c1)CCCN3CCC2", "readout name": "Potency", "observed result": "inactive"}
{"compound": "Cc1nccc(-c2ccc(-n3c(C)ccc3C)cc2)n1", "readout name": "Potency", "observed result": "79.4 µM (active)"}
{"compound": "Cc1nn2c3cc(N4CCOCC4)ccc3nc2c2ccccc12", "readout name": "Potency", "observed result": "inactive"}
{"compound": "COc1ccc(S(=O)(=O)N/N=C\\c2ccc(OC)c(COc3ccc(C)cc3[N+](=O)[O-])c2)cc1", "readout name": "Potency", "observed result": "inactive"}
{"compound": "Cc1csc(NCC(=O)c2c[nH]c3ccccc23)n1", "readout name": "Potency", "observed result": "inactive"}
{"compound": "CCC(=O)N1CCc2cc(Br)cc(S(=O)(=O)CCC(=O)NCc3ccccc3OC)c21", "readout name": "Potency", "observed result": "inactive"}
{"compound": "Cc1cccc(C(=O)N2CCc3cc(CNC(=O)Cc4ccc(F)cc4)ccc32)c1", "readout name": "Potency", "observed result": "inactive"}
{"compound": "C1=C(N2CCOCC2)/C(=C/c2nc3ccccc3[nH]2)CC1", "readout name": "Potency", "observed result": "15.8 µM (active)"}
{"compound": "Cc1cccc(N2CCN(C(=O)c3ccc4c(c3)CCN4S(=O)(=O)c3ccccc3)CC2)c1C", "readout name": "Potency", "observed result": "inactive"}
{"compound": "O=C(O)c1ccccc1NC(=S)NC(NC(=O)c1ccccc1[N+](=O)[O-])C(Cl)(Cl)Cl (stereo not given)", "readout name": "Potency", "observed result": "inactive"}
